# measured.on: recombinant human prostanoid EP2 receptor (Homo sapiens (Human))
# protocol.details: Human prostanoid EP2 receptor cellular functional assay (cAMP, HTRF)
# condition.description: CHO cells expressing recombinant human EP2; cAMP by HTRF; 30 min, 37° C.; read-out: In vitro functional assay EP2 (h) EC50
Reported EC50 values for the following compounds.
quantity.name: EC50 (nM)

• Cc1cc(OCC(=O)O)c(C)c(NCc2cc(-c3cccc(F)c3)ccc2F)c1F [I(ac)] = 18
• Cc1ccc(OCC(=O)O)c(C)c1NCc1cc(O)cc(-c2cccc(F)c2)c1 [I(ao)] = 1
• O=C(O)COc1ccc(F)c(NCc2c(F)ccc(-c3cccc(F)c3)c2F)c1F [I(s)] = 17
• O=C(O)COc1ccc(F)c(NCc2cc(-c3ccc(F)c(F)c3)ccc2F)c1F [I(w)] = 14
• O=C(O)COc1cccc(NCc2cc(-c3cccc(F)c3)ccc2F)c1 [I(a)] = 110
• Cc1cc(CNc2c(F)ccc(OCC(=O)O)c2F)c(F)c(-c2cccc(F)c2)c1 [I(g)] = 55
• COc1c(C)cc(-c2cccc(F)c2)cc1CNc1c(F)ccc(OCC(=O)O)c1C [I(af)] = 5
• NC(=O)c1cc(CNc2c(F)ccc(OCC(=O)O)c2F)cc(-c2cccc(F)c2)c1 [I(z)] = 4
• Cc1cc(-c2cc(F)cc(F)c2)cc(CNc2c(F)ccc(OCC(=O)O)c2F)c1C [I(ar)] = 8
• Cc1ccc(-c2cccc(F)c2)cc1CNc1c(F)ccc(OCC(=O)O)c1F [I(c)] = 69
• CC(Nc1c(F)ccc(OCC(=O)O)c1F)c1cc(-c2cccc(F)c2)ccc1F (racemic) [I(as)] = 11
• Cc1cc(-c2ccc(F)c(F)c2)cc(CNc2c(F)ccc(OCC(=O)O)c2F)c1C [I(aq)] = 2
• O=C(O)COc1ccc(F)c(NCc2cc(-c3cccc(F)c3)ccc2F)c1F [I(b)] = 28
• Cc1cc(OCC(=O)O)c(F)c(NCc2cc(-c3cccc(F)c3)ccc2F)c1F [I(ab)] = 50
• Cc1cc(CNc2c(C)ccc(OCC(=O)O)c2C)c(F)c(-c2cccc(F)c2)c1 [I(am)] = 3
• Cc1ccc(OCC(=O)O)c(F)c1NCc1cc(-c2cccc(F)c2)ccc1F [I(i)] = 99
• O=C(O)COc1ccc(F)c(NCc2cc(-c3cccc(F)c3)ccc2Cl)c1F [I(l)] = 24

###

# measured.on: recombinant human prostanoid EP2 receptor (Homo sapiens (Human), UniProt P43116)
# Sequence (P43116 whole entry): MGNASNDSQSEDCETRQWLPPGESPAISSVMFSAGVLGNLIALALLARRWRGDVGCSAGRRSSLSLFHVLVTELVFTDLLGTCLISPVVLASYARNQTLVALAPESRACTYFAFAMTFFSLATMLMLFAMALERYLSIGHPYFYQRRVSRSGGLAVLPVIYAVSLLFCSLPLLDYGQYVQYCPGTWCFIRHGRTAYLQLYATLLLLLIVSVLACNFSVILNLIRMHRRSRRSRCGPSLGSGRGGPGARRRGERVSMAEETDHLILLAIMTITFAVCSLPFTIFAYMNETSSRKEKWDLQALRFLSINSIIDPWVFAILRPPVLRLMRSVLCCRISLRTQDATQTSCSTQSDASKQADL
# protocol.details: Human prostanoid EP2 receptor cellular functional assay (cAMP, HTRF)
# Assay type: cell-based
# condition.description: percent of control specific agonist response (10 μM PGE2)
quantity.name: In vitro functional assay EP2 (h) % response (%)

- O=C(O)COc1ccc(F)c(NCc2cc(-c3cccc(F)c3)ccc2Cl)c1F [I(l)]: 76
- Cc1cc(CNc2c(F)ccc(OCC(=O)O)c2F)cc(-c2cccc(F)c2)c1 [I(d)]: 74
- Cc1cc(CNc2c(C)ccc(OCC(=O)O)c2C)cc(-c2cccc(F)c2)c1 [I(aj)]: 79
- Cc1cc(CNc2c(C)ccc(OCC(=O)O)c2C)c(F)c(-c2cccc(F)c2)c1 [I(am)]: 87
- Cc1ccc(OCC(=O)O)c(F)c1NCc1cc(-c2cccc(F)c2)ccc1F [I(i)]: 73
- O=C(O)COc1ccc(F)c(NCc2cc(-c3ccc(F)c(F)c3)ccc2F)c1F [I(w)]: 40
- Cc1cc(-c2cccc(F)c2)cc(CNc2c(F)ccc(OCC(=O)O)c2C)c1C [I(at)]: 91
- COc1c(C)cc(-c2cccc(F)c2)cc1CNc1c(C)ccc(OCC(=O)O)c1C [I(al)]: 70
- COc1c(C)cc(-c2cccc(F)c2)cc1CNc1c(F)ccc(OCC(=O)O)c1C [I(af)]: 70
- COc1cc(CNc2c(F)ccc(OCC(=O)O)c2F)cc(-c2cccc(F)c2)c1 [I(q)]: 70
- Cc1cc(-c2ccccc2)cc(CNc2c(F)ccc(OCC(=O)O)c2F)c1C [I(au)]: 81
- Cc1cc(CNc2c(F)ccc(OCC(=O)O)c2F)c(F)c(-c2cccc(F)c2)c1 [I(g)]: 80
- Cc1ccc(OCC(=O)O)c(C)c1NCc1cc(-c2cccc(F)c2)ccc1F [I(j)]: 80
- O=C(O)COc1ccc(F)c(NCc2cc(F)cc(-c3cccc(F)c3)c2)c1F [I(n)]: 86
- Cc1ccc(OCC(=O)O)c(C)c1NCc1cc(-c2cccc(F)c2)cc(F)c1C [I(aw)]: 80
- Cc1ccc(OCC(=O)O)c(C)c1NCc1cc(O)cc(-c2cccc(F)c2)c1 [I(ao)]: 76
- O=C(O)COc1ccc(F)c(NCc2cc(O)cc(-c3cccc(F)c3)c2F)c1F [I(f)]: 61
- N#Cc1cc(CNc2c(F)ccc(OCC(=O)O)c2F)cc(-c2cccc(F)c2)c1 [I(x)]: 45
- Cc1c(OCC(=O)O)ccc(F)c1NCc1cc(-c2cccc(F)c2)ccc1F [I(m)]: 89
- Cc1c(F)cc(-c2cccc(F)c2)cc1CNc1c(F)ccc(OCC(=O)O)c1F [I(aa)]: 97
- O=C(O)COc1ccc(F)c(NCc2cc(-c3cccc(F)c3)ccc2F)c1F [I(b)]: 82
- Cc1cc(-c2cccc(F)c2)cc(CNc2c(F)ccc(OCC(=O)O)c2F)c1F [I(h)]: 88
- Cc1cc(-c2cccc(F)c2)cc(CNc2c(F)ccc(OCC(=O)O)c2F)c1C [I(v)]: 85
- O=C(O)COc1ccc(F)c(NCc2cc(-c3cccc(F)c3)ccc2F)c1Cl [I(o)]: 74
- O=C(O)COc1ccc(F)c(NCc2c(F)ccc(-c3cccc(F)c3)c2F)c1F [I(s)]: 72
- O=C(O)COc1ccc(Cl)c(NCc2cc(-c3cccc(F)c3)ccc2F)c1F [I(k)]: 77
- Cc1cc(OCC(=O)O)c(F)c(NCc2cc(-c3cccc(F)c3)ccc2F)c1F [I(ab)]: 105
- C[C@@H](Nc1c(F)ccc(OCC(=O)O)c1F)c1cc(-c2cccc(F)c2)ccc1F (single isomer, unassigned) [I(as) (+ isomer)]: 124
- O=C(O)COc1ccc(F)c(NCc2cc(O)cc(-c3cccc(F)c3)c2)c1F [I(p)]: 70
- Cc1cc(-c2cccc(F)c2)cc(CNc2c(C)ccc(OCC(=O)O)c2C)c1F [I(ag)]: 85
- CC(Nc1c(F)ccc(OCC(=O)O)c1F)c1cc(-c2cccc(F)c2)ccc1F (racemic) [I(as)]: 107
- Cc1cc(-c2ccc(F)c(F)c2)cc(CNc2c(F)ccc(OCC(=O)O)c2F)c1C [I(aq)]: 31
- N#Cc1c(OCC(=O)O)ccc(F)c1NCc1cc(-c2cccc(F)c2)ccc1F [I(an)]: 91
- O=C(O)COc1ccc(Cl)c(NCc2cc(-c3cccc(F)c3)ccc2F)c1Cl [I(r)]: 78
- Cc1cc(-c2cccc(F)c2)cc(CNc2c(F)ccc(OCC(=O)O)c2C)c1F [I(ad)]: 101
- Cc1c(-c2cccc(F)c2)ccc(F)c1CNc1c(F)ccc(OCC(=O)O)c1F [I(y)]: 62
